A collection of compounds and their measured Fold change of fosab gene (RNA-seq)
System: zebrafish fosab gene
Experiment: RNA-seq analysis of zebrafish larvae liver (fosab)
Format: in vivo, Danio rerio
Conditions: 2 mM, exposed 3 dpf, collected 6 dpf

CCC1OC(=O)C(C)C(OC2CC(C)(OC)C(O)C(C)O2)C(C)C(OC2OC(C)CC(NC)C2O)C(C)(O)CC(C)CN(C)C(C)C(O)C1(C)O (centres unmarked) [Impurity I] :: 2.14
CCC1OC(=O)C(C)C(OC2CC(C)(OC)C(O)C(C)O2)C(C)C(OC2OC(C)CC([N+](C)(C)[O-])C2O)C(C)(O)CC(C)CN(C)C(C)C(O)C1(C)O (centres unmarked) [Impurity L] :: 4.10
CCC1OC(=O)C(C)C(O)C(C)C(OC2OC(C)CC(N(C)C)C2O)C(C)(O)CC(C)CN(C)C(C)C(O)C1(C)O (centres unmarked) [Impurity J] :: 2.92

Requested field: Fold change of fosab gene (RNA-seq). Item: CCC1OC(=O)C(C)C(OC2CC(C)(OC)C(O)C(C)O2)C(C)C(OC2OC(C)CC(N(C)C)C2O)C(C)(O)CC(C)C2=NC(C)C(O2)C1(C)O (centres unmarked) [Impurity R]
2.18

What value of Fold change of fosab gene (RNA-seq) has been reported for the following compound? CCC1OC(=O)C(C)C(OC2CC(C)(OC)C(O)C(C)O2)C(C)C(OC2OC(C)CC(N(C)C)C2O)C2(C)CC(C)C(=NC(C)C(O)C1(C)O)O2 (centres unmarked) [Impurity Q]
3.07
